- System: T1, Bir3 domain of XIAP (residues 252-350) with a C-terminal His tag (UniProt P98170 252-350)
- T1 construct: Stored with 10 mM beta-mercaptoethanol and dialysed before experimental use; also called Bir3 subunit of XIAP; XIAP (252-350); source: E. coli BL21 Star (DE3), purified (nickel-Sepharose, Sephacryl S100 gel filtration)
- T1 sequence (P98170 252-350): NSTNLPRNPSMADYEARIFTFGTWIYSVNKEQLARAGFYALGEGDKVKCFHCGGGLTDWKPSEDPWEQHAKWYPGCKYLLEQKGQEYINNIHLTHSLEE
- Assay Summary: fluorescence polarisation; non-labeled Bir3 (200 µl, 150 µM) titrated in 5 µl additions into 1 ml of fluorescein-labeled peptide; 20 mM Hepes pH 7.4, 45 mM NaCl, 10°C; fit to 1:1 binding model
- Run Conditions: both partners purified
No end group written: not given here.
So I've got a bunch of binders here, and I need their pKd values.
Numbers only, as −log10 of the molar value.

| Binder | pKd |
| --- | --- |
| {5'/6'‑carboxyfluorescein}-AEHQGQGCH (numbers count on: ARTS/Sept4_i2 (GenBank AAG45673.1); source: synthetic peptide) [fl-ARTS 266-274 Q266A] | 6.05 |
| {5'/6'‑carboxyfluorescein}-QEHQGQGCH (numbers count on: ARTS/Sept4_i2 (GenBank AAG45673.1); also called ARTS 266-274 monomer; source: synthetic peptide) [fl-ARTS 266-274] | 5.60 |

Q: Give the measured pKd of {5'/6'‑carboxyfluorescein}-QAHQGQGCH (numbers count on: ARTS/Sept4_i2 (GenBank AAG45673.1); source: synthetic peptide) [fl-ARTS 266-274 E267A] .
A: 5.44
